The entries below come with measured MIA PaCa-2 (pancreas, carcinoma) cell viability (% of control) values attached.
Tested on: MIA PaCa-2 (pancreas, carcinoma) cells
Assay: Cell viability assay, CellTiter-Glo (Example 21)
Format: cell-based, human
Conditions: 100 nM, 72 h treatment

compound="[N-]=[N+]=Nc1ccc(CN2C(=O)C3=C(CCN(Cc4cc(F)cc(F)c4)C3)N3CCN=C23)cc1 [I/107]" result_value="18.8 ± 6.2 % of control"
compound="O=C1C2=C(CCN(Cc3cc(F)cc(F)c3)C2)N2CCN=C2N1Cc1ccc(F)cc1 [I/7]" result_value="18.5 ± 6.8 % of control"
compound="O=C1C2=C(CCN(Cc3ccccc3)C2)N2CCN=C2N1Cc1ccc(C(F)(F)F)cc1 [I/1, reference compound]" result_value="43.4 ± 13.5 % of control"
compound="O=C1C2=C(CCN(Cc3cc(F)cc(F)c3)C2)N2CCN=C2N1Cc1ccc(C(F)(F)F)cc1 [I/30]" result_value="16.7 ± 6.7 % of control"

Query: May I ask what MIA PaCa-2 (pancreas, carcinoma) cell viability (% of control) has been recorded for O=C1C2=C(CCN(Cc3cccc(F)c3)C2)N2CCN=C2N1Cc1ccc(C(F)(F)F)cc1 [I/3, reference compound] ?
Reply: 17.5 ± 7.9 % of control
